Tested on: T-47D breast
methodSummary: NCI-60 one-dose screen, 48 h
experimentalParameters: 10 µM unless noted
Procedure: Growth inhibition of the T-47D human tumor cell line is measured as a screen for anti-cancer activity. Cells are grown in 96 well plates and exposed to the test compound for 48 hours. Compounds are tested at a single concentration, which is 10^-5 M for most compounds. The reported endpoint is percent growth (GI% or GIPRCNT), where numbers from 0 - 100% represent growth inhibition, and numbers from -100% - 0 represent cell death. For example, a value of 40 represents 60% growth inhibition. […]
Compounds without any hit were thinned out: in the full panel of roughly 83,000, 20% have a hit. The source made the active and inactive calls. How the source made its calls: active means growth percent below 10; inactive means the rest.
Can you answer with just one of these options? T (active), F (inactive)

These solved cases illustrate the format of a correct answer.
compound | label
Cc1cc(C(=O)c2ccccc2)c(C)c2c1[nH]c1ccc(Cl)cc12 | F
CCc1ccccc1NC(=O)/C(C#N)=C/c1ccc(OC)cc1 | F
COc1ccc(-c2nc(SCCC(C)C)nc(N/N=C\c3cccc(Cl)c3)c2C#N)cc1 | F
COc1ccc2[nH]c(O)c(C(=Nc3ccc(N(C)C(=O)CN4CCN(C)CC4)cc3)c3ccccc3)c2c1 | F
Cc1c(C)c2c(c(C)c1OCC(=O)O)CC[C@@](C)(CCC[C@@H](C)CCC[C@@H](C)CCCC(C)C)O2 | F

What is the recorded call for this compound in the test? O=Cc1ccc(O)c2ncccc12
F

Can you look up the reported call for NC(N)=NN=C(c1ccccc1)c1ccccc1 for me?
F

Which result was noted for this compound in the test: COc1cc(C2CC(=O)Nc3c2c(C)nn3-c2nc3ccccc3[nH]2)c(OC)c2c1OCO2 (stereo not given)
F

Kindly provide the recorded test outcome for the following compound: CCOC(=O)c1csc(NC(=O)COc2cccc(/C=C3\Oc4cc(OC)ccc4C3=O)c2)n1
F

Field: outcome | Entry: Fc1c[c-]c(-c2ccccn2)c(F)c1.[CH3-].[Pt+2].c1ccc(P(C[PH+](c2ccccc2)c2ccccc2)c2ccccc2)cc1
T

Dear colleague, could you share the recorded outcome for COCCc1ccc(OCC(O)CNC(C)C)cc1 (stereo not given) when you have a moment?
F

Each compound tested received a call. Report the one for C[C@H]1[C@H]2[C@H]3CC[C@@H]4[C@@]5(C)C/C(=C/c6ccco6)C(=O)C(C)(C)[C@@H]5CC[C@@]4(C)[C@]3(C)CC[C@]23CO[C@]1(C)[C@@H](C(=O)/C=C\c1ccco1)C3 .
F

Recorded test outcome, item CCN1CCN(c2cc(C)nc(NCc3cc(Nc4ccnc5cc(Cl)ccc45)ccc3F)n2)CC1
T

Give the logged outcome of this assay for the following compound: NC1=NCc2nc3ccccc3c(=O)n2C1
F

What classification did CCOc1c(C#N)nnc2c(C#N)c(NC(=O)c3ccccc3)nn12 end up with in this test?
F

What classification did Cc1c2c(c(C)c3c1oc1cc(O)ccc13)C(=O)N(CCN1CCCCC1)C2=O end up with in this test?
F

Which result was noted for this compound in the test: CN1C(=O)N(C)C2C1NN=c1s/c(=C\c3ccccc3)c(=O)n12 (stereo not given)
F

Per the records of this test, what outcome belongs to Cc1ccc(/C=C/c2c(C(=O)/C=C/c3ccc(Cl)cc3)c(C)nc3ccccc23)cc1 ?
T

Please share the test call associated with CCN(CC)CCCCCCNc1cc(OC)c(Cl)c2cccnc12 .
F

Dear all, I need the recorded test outcome for CCCCCCCCCCCC(c1ccccc1)[N+](C)(C)C (stereo not given) , thank you.
T
